The entries below are paired with their reported IC50.
- subject_of_test: BACE1 (Homo sapiens (Human), UniProt P56817)
- Sequence (P56817 46-501): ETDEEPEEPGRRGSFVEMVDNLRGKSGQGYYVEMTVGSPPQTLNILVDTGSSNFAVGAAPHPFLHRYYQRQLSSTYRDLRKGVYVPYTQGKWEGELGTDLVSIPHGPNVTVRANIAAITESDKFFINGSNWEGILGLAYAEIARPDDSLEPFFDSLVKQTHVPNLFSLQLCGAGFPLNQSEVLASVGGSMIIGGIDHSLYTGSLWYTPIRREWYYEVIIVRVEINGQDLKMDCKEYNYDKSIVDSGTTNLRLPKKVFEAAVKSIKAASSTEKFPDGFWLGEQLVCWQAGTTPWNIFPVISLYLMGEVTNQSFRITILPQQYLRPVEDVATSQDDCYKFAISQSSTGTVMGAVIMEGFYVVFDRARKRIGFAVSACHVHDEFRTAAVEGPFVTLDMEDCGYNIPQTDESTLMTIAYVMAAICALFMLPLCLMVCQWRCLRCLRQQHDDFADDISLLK
- assay_procedure: In vitro enzymatic BACE1 FRET assay
- Type: biochemical
- test_context: read-out: IC50 IP (μM) BACE1 Enzyme
measurement_type: IC50 (µM)

>>> test_value("CN(C)C(=O)[C@]12C[C@H]1[C@@](C)(c1cc(/C=C(\\F)c3ncc(C#N)s3)ccc1F)N=C(N)S2 [Example 219]")
0.004
>>> test_value("C#CCOc1cnc(/C(F)=C/c2ccc(F)c([C@@]3(C)N=C(N)S[C@]4(CO)[C@H]3C4(F)F)c2)cn1 [Example 253]")
0.0054
>>> test_value("C[C@]1(c2cc(/C=C(\\F)c3ccc(C#N)cn3)ccc2F)N=C(N)S[C@@]2(C(=O)N3CCC4(CCO4)C3)C[C@H]21 (stereo partly shown) [Example 327]")
0.0008
>>> test_value("COc1ccc(/C(F)=C/c2ccc(F)c([C@@]3(C)N=C(N)S[C@@]4(C(=O)N5CCCC5)C[C@H]43)c2)nc1 [Example 104]")
0.0226
>>> test_value("C[C@H]1CN(C(=O)[C@]23C[C@H]2[C@@](C)(c2cc(/C=C(\\F)c4ccc(C#N)cn4)ccc2F)N=C(N)S3)[C@@H](C)CO1 [Example 329]")
0.0045
>>> test_value("C[C@]1(c2cc(/C=C(\\F)c3cnc(C#C[Si](C)(C)C)cn3)ccc2F)N=C(N)S[C@@]2(C(=O)N3CCOCC3)C[C@H]21 [Example 349]")
0.003
>>> test_value("CNC(=O)[C@]12C[C@H]1[C@@](C)(c1cc(/C=C(\\F)c3ccc(OC(F)(F)F)cn3)ccc1F)N=C(N)S2 [Example 364]")
0.008
>>> test_value("COC[C@]12C[C@H]1[C@@](C)(c1cc(/C=C(\\F)c3cnc(OCc4cc(C)on4)cn3)ccc1F)N=C(N)S2 [Example 275]")
0.248
>>> test_value("C#Cc1ccc(/C(F)=C/c2ccc(F)c([C@@]3(C)N=C(N)S[C@@]4(C(=O)N(C)C)C[C@H]43)c2)nc1 [Example 110]")
0.00324
>>> test_value("C[C@@H]1CCN1C(=O)[C@]12C[C@H]1[C@@](C)(c1cc(/C=C(\\F)c3ccc(Cl)cn3)ccc1F)N=C(N)S2 [Example 120]")
0.00275
>>> test_value("CNC(=O)[C@]12C[C@H]1[C@@](C)(c1cc(/C=C(/F)c3ccc(Br)cn3)ccc1F)N=C(N)S2 [Example 356]")
0.023
>>> test_value("COC(=O)[C@]12C[C@H]1[C@@](C)(c1cc(/C=C(\\F)c3cnc(OCc4ncco4)cn3)ccc1F)N=C(N)S2 [Example 150]")
0.0535
>>> test_value("CNC(=O)[C@]12C[C@H]1[C@@](C)(c1cc(/C=C(\\F)c3cnc(Br)cn3)ccc1F)N=C(N)S2 [Example 163]")
0.0249

---

- subject_of_test: UniProt:Q9Y5Z0
- assay_procedure: In vitro enzymatic BACE2 FRET assay
- Type: biochemical
- test_context: read-out: IC50 IP (μM) BACE2 Enzyme
measurement_type: IC50 (µM)

>>> test_value("CNC(=O)[C@]12C[C@H]1[C@@](C)(c1cc(/C=C(\\F)c3cnc(C#CCO)cn3)ccc1F)N=C(N)S2")
0.365
>>> test_value("C[C@@H]1COC[C@H](C)N1C(=O)[C@]12C[C@H]1[C@@](C)(c1cc(/C=C(\\F)c3ccc(C#N)cn3)ccc1F)N=C(N)S2")
0.147
>>> test_value("CN(C)C(=O)[C@]12C[C@H]1[C@@](C)(c1cc(/C=C(\\F)c3ncc(C#N)s3)ccc1F)N=C(N)S2")
0.007
>>> test_value("CC1CCN(C(=O)[C@]23C[C@H]2[C@@](C)(c2cc(/C=C(\\F)c4ccc(C#N)cn4)ccc2F)N=C(N)S3)CC1")
0.00486

---

- subject_of_test: BACE2 (Homo sapiens (Human))
- Sequence (Q9Y5Z0 63-518): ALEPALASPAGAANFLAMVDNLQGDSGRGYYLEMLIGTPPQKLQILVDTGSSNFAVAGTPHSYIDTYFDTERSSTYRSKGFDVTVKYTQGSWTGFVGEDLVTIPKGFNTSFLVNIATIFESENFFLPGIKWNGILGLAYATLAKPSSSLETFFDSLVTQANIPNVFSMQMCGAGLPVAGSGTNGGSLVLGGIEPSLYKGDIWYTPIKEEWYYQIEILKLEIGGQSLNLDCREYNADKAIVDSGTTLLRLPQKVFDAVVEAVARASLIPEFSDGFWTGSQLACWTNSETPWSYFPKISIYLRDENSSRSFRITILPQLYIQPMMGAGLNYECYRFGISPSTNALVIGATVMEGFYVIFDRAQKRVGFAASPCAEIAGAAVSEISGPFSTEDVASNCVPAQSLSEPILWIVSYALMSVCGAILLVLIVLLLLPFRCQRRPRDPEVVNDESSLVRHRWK
- assay_procedure: In vitro enzymatic BACE2 FRET assay
- Type: biochemical
- test_context: read-out: IC50 IP (μM) BACE2 Enzyme
measurement_type: IC50 (µM)

>>> test_value("CC(C)[C@@H]1CN(C(=O)[C@]23C[C@H]2[C@@](C)(c2cc(/C=C(\\F)c4ccc(C#N)cn4)ccc2F)N=C(N)S3)CCO1")
0.007
>>> test_value("C[C@]1(c2cc(/C=C(\\F)c3ccc(C#N)cn3)ccc2F)N=C(N)S[C@]2(CO)[C@H]1C2(F)F")
0.159
>>> test_value("CN(C)C(=O)[C@]12C[C@H]1[C@@](C)(c1cc(/C=C(\\F)c3cnc(OCC4COC4)cn3)ccc1F)N=C(N)S2")
0.077
>>> test_value("C[C@]1(c2cc(/C=C(\\F)c3ccc(C#N)cn3)ccc2F)N=C(N)S[C@@]2(S(C)(=O)=O)C[C@H]21")
0.014
>>> test_value("CN(C)C(=O)[C@]12C[C@H]1[C@@](C)(c1cc(/C=C(\\F)c3ccc(Br)cn3)ccc1F)N=C(N)S2")
0.00292
>>> test_value("C#CCOc1cnc(/C(F)=C/c2ccc(F)c([C@@]3(C)N=C(N)S[C@]4(CO)[C@H]3C4(F)F)c2)cn1")
0.385
>>> test_value("CN(C)C(=O)[C@]12C[C@H]1[C@@](C)(c1cc(/C=C(\\F)c3ccc(C#N)cc3F)ccc1F)N=C(N)S2")
0.146

---

The entries below are paired with their reported IC50.
- subject_of_test: BACE2 (Homo sapiens (Human))
- assay_procedure: In vitro enzymatic BACE2 FRET assay
- Format: biochemical
- test_context: read-out: IC50 IP (μM) BACE2 Enzyme
measurement_type: IC50 (µM)

>>> test_value("CN(C)C(=O)[C@]12C[C@H]1[C@@](C)(c1cc(/C=C(\\F)c3cnc(OCC(F)(F)F)cn3)cnc1F)N=C(N)S2")
0.125
>>> test_value("CNC(=O)[C@]12C[C@H]1[C@@](C)(c1cc(/C=C(\\F)c3ccc(Cl)cn3)ccc1F)N=C(N)S2")
0.0364
>>> test_value("CN(C)C(=O)[C@]12C[C@H]1[C@@](C)(c1cc(/C=C(\\F)c3cnc(OCc4ncco4)cn3)ccc1F)N=C(N)S2")
0.0455
>>> test_value("COC(=O)[C@]12C[C@H]1[C@@](C)(c1cc(/C=C(\\F)c3ccc(Cl)cn3)cnc1F)N=C(N)S2")
0.214
>>> test_value("C[C@H]1CCN1C(=O)[C@]12C[C@H]1[C@@](C)(c1cc(/C=C(\\F)c3ccc(Cl)cn3)ccc1F)N=C(N)S2 (single isomer, unassigned)")
0.00752
>>> test_value("COC[C@]12C[C@H]1[C@@](C)(c1cc(/C=C(\\F)c3cnc(OCCC(F)(F)F)cn3)ccc1F)N=C(N)S2")
1.55
>>> test_value("C[C@]1(c2cc(/C=C(\\F)c3ccc(C#N)cn3)ccc2F)N=C(N)S[C@@]2(C(=O)N3CCO[C@H]4C[C@H]43)C[C@H]21")
0.048
>>> test_value("C[C@]1(c2cc(/C=C(\\F)c3ccc(Cl)cn3)ccc2F)N=C(N)S[C@]2(CO)[C@H]1C2(F)F")
0.056
>>> test_value("CC(Oc1cnc(/C(F)=C/c2ccc(F)c([C@@]3(C)N=C(N)S[C@@]4(C(=O)N(C)C)C[C@H]43)c2)cn1)c1ncco1 (some centres unmarked)")
0.135
>>> test_value("C[C@]1(c2cc(/C=C(\\F)c3ccc(C#N)cn3)ccc2F)N=C(N)S[C@@]2(C(=O)N3CC[C@@H]4CCCC[C@H]4C3)C[C@H]21")
0.00166
>>> test_value("C[C@@H]1CC[C@@H](C)N1C(=O)[C@]12C[C@H]1[C@@](C)(c1cc(/C=C(\\F)c3ccc(C#N)cn3)ccc1F)N=C(N)S2")
0.099
>>> test_value("CC1CCN1C(=O)[C@]12C[C@H]1[C@@](C)(c1cc(/C=C(\\F)c3ccc(Cl)cn3)ccc1F)N=C(N)S2 (some centres unmarked)")
0.0119
>>> test_value("Cc1cnc([C@]23C[C@H]2[C@@](C)(c2cc(/C=C(\\F)c4ccc(C#N)cn4)ccc2F)N=C(N)S3)o1")
0.18
>>> test_value("C#C[C@H](C)Oc1cnc(/C(F)=C/c2ccc(F)c([C@@]3(C)N=C(N)S[C@@]4(COC)C[C@H]43)c2)cn1")
0.917
>>> test_value("C[C@]1(c2cc(/C=C(\\F)c3ccc(C#N)cn3)ccc2F)N=C(N)S[C@@]2(C(=O)N3CCO[C@@H]4C[C@@H]43)C[C@H]21 (single isomer, unassigned)")
0.068
>>> test_value("COc1ncc(/C=C(\\F)c2ccc(C#N)cn2)cc1[C@@]1(C)N=C(N)S[C@@]2(C(=O)N3CC[C@@H](F)C3)C[C@H]21")
0.34
>>> test_value("COC(=O)[C@]12C[C@H]1[C@@](C)(c1cc(/C=C(\\F)c3ccc(Cl)cn3)ccc1F)N=C(N)S2")
0.102
>>> test_value("CNC(=O)[C@]12C[C@H]1[C@@](C)(c1cc(/C=C(\\F)c3cnc(Br)cn3)ccc1F)N=C(N)S2")
0.266
>>> test_value("C[C@]1(c2cc(/C=C(\\F)c3ccc(C#N)cn3)ccc2F)N=C(N)S[C@@]2(C(=O)N3CCC(F)CC3)C[C@H]21")
0.045
>>> test_value("C[C@]1(c2cc(/C=C(\\F)c3ccc(C#N)cn3)ccc2F)N=C(N)S[C@@]2(C(N)=O)C[C@H]21")
0.043
>>> test_value("CC1(C)COCCN1C(=O)[C@]12C[C@H]1[C@@](C)(c1cc(/C=C(\\F)c3ccc(C#N)cn3)ccc1F)N=C(N)S2")
0.109
>>> test_value("COC(=O)[C@]12C[C@H]1[C@@](C)(c1cc(/C=C(/F)c3ccc(Cl)cn3)cnc1F)N=C(N)S2")
2.9
>>> test_value("COC[C@@H]1CCCN1C(=O)[C@]12C[C@H]1[C@@](C)(c1cc(/C=C(\\F)c3ccc(Cl)cn3)ccc1F)N=C(N)S2")
0.0209
>>> test_value("COC[C@H](C)Oc1cnc(/C(F)=C/c2ccc(F)c([C@@]3(C)N=C(N)S[C@@]4(C(=O)N(C)C)C[C@H]43)c2)cn1")
0.072
>>> test_value("C[C@]1(c2cc(/C=C(/F)c3ccc(C#N)cn3)ccc2F)N=C(N)S[C@@]2(C(=O)N3CCOCC3)C[C@H]21")
0.165
>>> test_value("COC[C@]12C[C@H]1[C@@](C)(c1cc(/C=C(\\F)c3cnc(OCC4COC4)cn3)ccc1F)N=C(N)S2")
4.02
